methodNotes: qHTS Assay for Rab9 Promoter Activators; note: nearly all actives have a fitted effect of over 60% in size; note: potency is the fitted concentration of half-maximal effect
experimentalConditions: Huh7 Rab9 promoter-luciferase reporter, luminescence, 24 h; series mostly up to 9.22 µM
About 9,100 (2.8%) of roughly 320,000 compounds were called active. Roughly 3% stayed inconclusive and do not appear here. What follows is part of a selection rich in actives, with near analogues and random picks from the rest.
measuredParameter: Potency

Example compounds with recorded Potency:
COc1ccc(OCc2ccc(-c3nc4ccccc4c(=O)n3N)o2)cc1 :: 1260 nM (active)
C=CCN1C(=O)C(Cc2cccc(Cl)c2)S/C1=N/N=C/c1ccco1 (stereo unspecified) :: inactive
CC(=O)Nc1ccc(S(=O)(=O)Nc2nc(-c3ccc(C(C)(C)C)cc3)cs2)cc1 :: inactive
COc1ccc(-c2nc3ccccc3c(=O)n2CCc2ccc(O)cc2)cc1 :: inactive
COc1ccc(CN2C(=O)C(C)S/C2=N/N=C/c2ccco2)cc1 (stereo unspecified) :: 2820 nM (active)

Input line: // lookup Potency for COc1ccc(OCc2n[nH]c(=S)n2N)cc1
Output line: inactive

Input line: // lookup Potency for O=C1N/C(=N\N=C\c2ccco2)SC1Cc1ccc(F)cc1 (stereo unspecified)
Output line: inactive

Input line: // lookup Potency for O=C1C=C(c2ccnc3cc(Cl)ccc23)C[C@@H](c2ccc3c(c2)OCO3)C1
Output line: inactive

Input line: // lookup Potency for C=C(C)CNc1cc(S(=O)(=O)N2CCOCC2)ccc1Oc1ccccc1
Output line: inactive

Input line: // lookup Potency for FC(F)(F)Oc1ccc(-c2cn3cccnc3n2)cc1
Output line: 2510 nM (active)

Input line: // lookup Potency for COC(=O)Cc1ccc(OC(=O)C2CCN(S(=O)(=O)c3ccc(OC)c(OC)c3)CC2)cc1
Output line: inactive

###

methodNotes: qHTS Assay for Rab9 Promoter Activators; note: nearly all actives have a fitted effect of over 60% in size
experimentalConditions: Huh7 Rab9 promoter-luciferase reporter, luminescence, 24 h; series mostly up to 9.22 µM
Screen size: about 320,000 compounds; about 9,100 (2.8%) were called active. Another 3% or so got no clear call; they are omitted. Calls follow the shape of the dose curve; as a rule, active = well fitted activation curve with a large enough effect; inconclusive = small, poorly fitted or top-dose-only effect; inactive = no such curve, though single readings can be large or run the other way. The full list was thinned out, with actives kept by preference.
Entry note: the call must match one of active, inactive

Cc1ccccc1C(=O)NC(=S)Nc1ccc(N2CCN(C(=O)c3ccccc3)CC2)cc1 :: inactive
O=C1c2ccccc2C(=O)N1Cc1cc(-c2ccccc2Cl)no1 :: inactive
CC(NCC(=O)Nc1ccccc1C(=O)NC1CC1)c1ccccc1Cl (stereo not given) :: inactive

Input line: Identify the outcome logged in this assay for the compound shown: COc1ccc(NS(=O)(=O)c2cccc(C(=O)NCCc3ccc(S(N)(=O)=O)cc3)c2)cc1
Output line: inactive

Input line: Identify the outcome logged in this assay for the compound shown: COc1ccc(C2COC(=O)C2=N)c(NC(=O)c2ccccc2)c1 (stereo not given)
Output line: inactive

Input line: Identify the outcome logged in this assay for the compound shown: COc1ccc(C(=O)Nc2ccc(N3CCC(C)CC3)cc2)cc1Br
Output line: inactive

Input line: Identify the outcome logged in this assay for the compound shown: Cc1[nH]n(C)c(=O)c1C(=O)c1c(-c2c(Cl)cccc2Cl)noc1C
Output line: inactive

###

methodNotes: qHTS Assay for Rab9 Promoter Activators; note: nearly all actives have a fitted effect of over 60% in size; note: potency is the fitted concentration of half-maximal effect
experimentalConditions: Huh7 Rab9 promoter-luciferase reporter, luminescence, 24 h; series mostly up to 9.22 µM
Screen size: about 320,000 compounds; about 9,100 (2.8%) were called active. About 3% were inconclusive and are not listed. For the sample, actives were picked, then their nearest neighbours and some compounds at random.
measuredParameter: Potency

Example compounds with recorded Potency:
c1ccc(CN2CCC(N=C3NN=C(c4ccc5c(c4)OCCO5)CS3)CC2)cc1 :: inactive
CCOC(=O)Cc1csc(SCC(=O)Nc2ccc(C)cc2F)n1 :: inactive
O=c1c(-c2ccccc2)coc2c(CN3CCOCC3)c(O)ccc12 :: inactive
CCOC(=O)N1CCN(C(=O)COc2ccc3oc4c(c3c2)CCCC4)CC1 :: inactive
O=C(c1ccco1)N1CCN(C(=O)c2cc(-c3ccccc3F)no2)CC1 :: inactive
Cc1cccc(-c2noc(-c3ccc(F)cc3)n2)c1 :: 0.224 µM (active)
CC(OC(=O)c1cc2ccccc2o1)C(=O)Nc1ccc(N2CCOCC2)cc1 (stereo not drawn) :: inactive
Clc1cccc(N=C2NN=C(c3ccc4c(c3)OCCO4)CS2)c1 :: 3.55 µM (active)

Input line: // lookup Potency for CCn1c(=S)sc2c(=O)n(CC(=O)Nc3ccc(OC)cc3)c(C)nc21
Output line: inactive

Input line: // lookup Potency for CCNC(=O)N1CCN(S(=O)(=O)c2ccc3c(c2)OCCCO3)CC1
Output line: inactive

Input line: // lookup Potency for CN(C)c1nc(=Nc2cccc(Cl)c2)ss1
Output line: inactive

Input line: // lookup Potency for O=C(Nc1cccc(-c2nc3ncccc3o2)c1)c1ccco1
Output line: inactive
